experimental.target: Luciferin 4-monooxygenase (Photinus pyralis) (UniProt P08659)
Sequence (P08659 whole entry, looked up): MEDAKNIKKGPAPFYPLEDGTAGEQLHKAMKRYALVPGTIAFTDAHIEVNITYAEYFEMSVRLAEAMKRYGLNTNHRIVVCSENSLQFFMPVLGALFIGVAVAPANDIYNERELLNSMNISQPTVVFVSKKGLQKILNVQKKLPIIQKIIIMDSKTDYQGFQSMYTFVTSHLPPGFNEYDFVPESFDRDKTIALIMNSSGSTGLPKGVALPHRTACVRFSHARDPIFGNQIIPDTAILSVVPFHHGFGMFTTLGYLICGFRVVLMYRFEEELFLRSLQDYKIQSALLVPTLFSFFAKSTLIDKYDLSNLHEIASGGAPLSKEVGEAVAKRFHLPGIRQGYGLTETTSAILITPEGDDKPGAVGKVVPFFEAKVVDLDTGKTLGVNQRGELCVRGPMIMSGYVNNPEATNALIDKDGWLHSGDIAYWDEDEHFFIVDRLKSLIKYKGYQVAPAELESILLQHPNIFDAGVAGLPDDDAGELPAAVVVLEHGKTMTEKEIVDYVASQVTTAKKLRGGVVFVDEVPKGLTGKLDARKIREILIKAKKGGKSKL
procedure.details: Firefly luciferase inhibition profiling of diverse chemical library using quantitative high-throughput screening; further: nearly all actives have a fitted effect of over 65% in size
condition.summary: purified P. pyralis luciferase, luminescence, biochemical; series mostly up to 115 µM
Among all 76,000 compounds or so, about 1,900 (2.5%) were called active. Roughly 5% stayed inconclusive and do not appear here. The call rests on the fitted dose curve; in most records, active means well fitted inhibition curve with a large enough effect; inconclusive means small, poorly fitted or top-dose-only effect; inactive means flat fitted curve, though single readings scatter. Shown is part of a subset that was picked to be rich in actives.
Form entry, call: pick from YES for active, NO for inactive

Please share the test call associated with `COc1ccc(F)cc1-c1ncc2c(n1)OCCN(CC1CC1)C2=O` .
NO

Same lookup for `CC(C)Oc1cccc(-c2nc(C(=O)NCc3ccc(F)cc3)cs2)c1` , please.
NO

Same lookup for O=C(Nc1cccc(Br)c1)C1CC(=O)N(c2n[nH]c3cccc(F)c23)C1 (stereo unspecified) , please.
NO

Same lookup for Cc1ccc(C2Cn3nnc(C(=O)N4CCC(C(=O)NCCc5ccccc5)CC4)c3CO2)cc1 (stereo unspecified) , please.
YES

Same lookup for `NC(=O)c1cccc(-c2ncc3c(n2)OCCN(Cc2ccccc2)C3=O)c1` , please.
NO

Same lookup for `NC(=O)c1cccc(-c2ncc3c(n2)OCCN(c2cccc(C(F)(F)F)c2)C3=O)c1` , please.
NO

Same lookup for `CN(C)c1cccc(-c2ncc3c(n2)OCCN(Cc2ccc(F)cc2F)C3=O)c1` , please.
NO

Same lookup for `COCc1nncn1C1CCN(C(=O)c2ccccc2F)CC1` , please.
NO

Same lookup for `COc1cc(-c2noc(-c3nc(-c4ccc5c(c4)OCO5)no3)n2)cc(OC)c1OC` , please.
NO

Same lookup for CC(=O)Nc1ccc(CN2CCCC3(CC(c4cccc(C(F)(F)F)c4)=NO3)C2)cc1 (stereo unspecified) , please.
NO

Same lookup for `CN(CCNC(=O)CCc1cc2ccccc2[nH]c1=O)C1CCCCC1` , please.
NO

Same lookup for `O=C1c2cnc(-c3ccc(O)c(F)c3)nc2OCCN1Cc1ccccc1` , please.
YES

Same lookup for `O=C(Cn1nc(-c2ccccc2)n(-c2ccccc2)c1=O)N1C[C@@H]2C[C@H]1CN2` , please.
NO

Same lookup for `CCc1noc(-c2cccn3c(CNC(=O)c4ccncc4)nnc23)n1` , please.
NO

Same lookup for `COc1ccc(-c2ncc3c(n2)OCCN(CC2CC2)C3=O)cc1` , please.
YES

Same lookup for `COc1ccc(CN2CCOc3nc(-c4cc(F)cc(OC)c4)ncc3C2=O)cc1` , please.
YES

Same lookup for `COc1ccccc1N1CCN(C(=O)Cn2c(N3CCc4ccccc4C3)nc(C)cc2=O)CC1` , please.
NO

Same lookup for `Cc1c(-c2ccc(F)cc2)[nH]c2ccc(CNC(=O)c3ccc(CO)o3)cc12` , please.
NO

Same lookup for `O=C1c2cnc(-c3ccc(Cl)cc3)nc2OCCN1Cc1ccccc1` , please.
NO

Same lookup for `O=C([C@@H]1C[C@H](Oc2ccccc2)CN1C(=O)CN1CCCCCC1)N1CCCC1` , please.
NO

Same lookup for `Cc1ocnc1C(=O)N1CCc2nc(N)nc(N3CC[C@H](O)C3)c2CC1` , please.
NO

----------
experimental.target: Luciferin 4-monooxygenase (Photinus pyralis) (UniProt P08659)
procedure.details: Firefly luciferase inhibition profiling of diverse chemical library using quantitative high-throughput screening; further: nearly all actives have a fitted effect of over 65% in size
condition.summary: purified P. pyralis luciferase, luminescence, biochemical; series mostly up to 115 µM
The whole screen tested about 76,000 compounds, of which about 1,900 (2.5%) were called active. Roughly 5% stayed inconclusive and do not appear here. The call rests on the fitted dose curve; in most records, active means well fitted inhibition curve with a large enough effect; inconclusive means small, poorly fitted or top-dose-only effect; inactive means flat fitted curve, though single readings scatter. The full list was thinned out, with actives kept by preference.
Form entry, call: pick from 1 (active), 0 (inactive)

Please share the test call associated with O=C(CCC1CCCC1)N1CCC2(CC1)CC(O)CCO2 (configuration not stated) .
0

Same lookup for `COc1ccc(-c2nc3ccncc3[nH]2)cc1` , please.
1

Same lookup for CN1CCN(C2CCOC3(CCN(C(=O)c4cccc5[nH]ccc45)CC3)C2)CC1 (configuration not stated) , please.
0

Same lookup for `COCc1noc(-c2ccc(NCCN3CCNC3=O)nc2)n1` , please.
0

Same lookup for CN1c2cc(C(=O)Nc3ccccc3)ccc2C(=O)N2CCCCCC21 (configuration not stated) , please.
1

Same lookup for `O=C(C[C@@H]1CCNC[C@@H]1Cc1cc(CSc2ccccc2)on1)NCc1ccc2c(c1)OCO2` , please.
0

Same lookup for Cc1cccn2c(CC(=O)NCC3CCN(c4cnn(C)c(=O)c4)C3)cnc12 (configuration not stated) , please.
0

Same lookup for O=C(Nc1cccc(Cl)c1)C1CCCN(c2nc3ncccc3o2)C1 (configuration not stated) , please.
0

Same lookup for `CC(=O)N1CCc2ccc(C(=O)N3CCCCCC3)cc21` , please.
0

Same lookup for `Cc1ccc(C(=O)N2CC(N(Cc3cccnc3)CC(C)C)C2)s1` , please.
0

Same lookup for Cc1cccc(-c2cccc(NC(=O)C3CCCN(C(=O)CC(F)(F)F)C3)c2)c1 (configuration not stated) , please.
1

Same lookup for `COc1ccc(CC(=O)NC[C@@H]2C=C(C)[C@H](Cc3nc4ccncc4[nH]3)C[C@H]2C(C)C)cc1` , please.
0

Same lookup for O=C(Nc1cccc(F)c1)N1CCCC(CN2CCOCC2)CC1 (configuration not stated) , please.
0

Same lookup for COCCOCC(=O)N1CCCC(c2nc(-c3ccccc3)no2)CCNC(=O)CC1 (configuration not stated) , please.
0

Same lookup for `COc1cc(Cl)ccc1C(=O)N1CCC[C@H]1c1nc(-c2ccccc2)no1` , please.
0

Same lookup for CN(C)c1ccc(CN2CCC3(CC(Cc4ccccc4)=NO3)C2)cc1 (configuration not stated) , please.
0

Same lookup for CN1C(=O)C(CC(=O)N2CCC(C#N)CC2)(Cc2ccccc2)c2ccccc21 (configuration not stated) , please.
0

Same lookup for COc1cccc(C(O)c2nc(C(=O)Nc3ccccc3)c(C)o2)c1 (configuration not stated) , please.
0

Same lookup for `Cc1cc(C)cc(C(=O)Nc2ccc3c(N4CCCC4)ncnc3c2)c1` , please.
0

Same lookup for Cc1ccccc1CNC(=O)c1ccc2c(c1)N(C)C1CCCCN1C2=O (configuration not stated) , please.
0

Same lookup for COCCc1noc(-c2ccc(NC(C)c3ncccc3C)nc2)n1 (configuration not stated) , please.
1

Same lookup for CC(=O)N(C1CC1)C1CCOC2(CCN(C(=O)CCc3ccccc3)CC2)C1 (configuration not stated) , please.
0
